Biological target: EGFR Exon19Del (Homo sapiens, UniProt P00533, DEL746-750)
Construct: purchased Carna Bio
Sequence (P00533 with tags, fused parts or gaps DEL746-750 limits assumed): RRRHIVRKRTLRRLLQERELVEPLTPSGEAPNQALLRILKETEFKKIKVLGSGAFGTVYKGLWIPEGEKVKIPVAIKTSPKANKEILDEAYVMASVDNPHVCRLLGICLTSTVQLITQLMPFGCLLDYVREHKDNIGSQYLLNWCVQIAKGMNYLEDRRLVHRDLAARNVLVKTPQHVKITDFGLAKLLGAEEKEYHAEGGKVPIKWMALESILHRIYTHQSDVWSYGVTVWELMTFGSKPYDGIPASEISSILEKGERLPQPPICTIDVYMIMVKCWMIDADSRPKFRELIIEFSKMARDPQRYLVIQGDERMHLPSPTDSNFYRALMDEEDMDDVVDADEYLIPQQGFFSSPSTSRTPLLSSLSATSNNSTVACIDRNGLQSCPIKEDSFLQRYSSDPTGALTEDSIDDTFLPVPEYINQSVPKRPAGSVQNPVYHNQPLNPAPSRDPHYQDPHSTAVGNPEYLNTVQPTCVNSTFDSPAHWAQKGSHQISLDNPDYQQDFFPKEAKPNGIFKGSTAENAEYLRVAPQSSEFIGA
Test: Inhibition of EGFR Exon19Del biochemical enzymatic activity (HTRF)
Details: EGFR Del19, 1 mM ATP, 1 h, room temperature, read-out: IC50 @Del19
Recorded endpoint: pIC50
Numbers only, as −log10 of the molar value.

Some compounds with known pIC50 results, for comparison:
Compound	pIC50
C[C@@H]1CCCOc2c(cnn2C)-c2cc(cn(C)c2=O)C(=O)Nc2nc3ccc(N4CCC(N5CCN(C)CC5)C4)cc3n2C1 (stereo partly shown) [Example A33]	8.51
CN1CCOC2(C1)CN(c1ccc3nc4n(c3c1)C13CCC(CN(CCOc5c(cnn5C)-c5cc(cn(C)c5=O)C(=O)N4)C1)C3)C2 (single isomer, unassigned) [Example A86B]	8.40
CN1CCOC2(C1)CN(c1ccc3nc4n(c3c1)C13CCC(CN(CCOc5c(cnn5C)-c5cc(cn(C)c5=O)C(=O)N4)C1)C3)C2 (single isomer, unassigned) [Example A86A]	6.16

# return pIC50 for each item in the list
1. CN1CCN(C2CCN(c3ccc4nc5n(c4c3)C34CCC(CN(CCOc6c(cnn6C)-c6cc(cn(C)c6=O)C(=O)N5)C3)C4)CC2)CC1 (single isomer, unassigned) [Example A106A]
2. Cn1ncc2c1OCCN1CC3CCC(C3)(C1)n1c(nc3ccc(N4CCN(C5CC5)CC4)cc31)NC(=O)c1cc-2c(=O)n(C)c1 (single isomer, unassigned) [Example A83A]
3. Cn1ncc2c1OCCN1CC3CCC(C3)(C1)n1c(nc3ccc(N4CCC(N5CC(F)C5)CC4)cc31)NC(=O)c1cc-2c(=O)n(C)c1 (single isomer, unassigned) [Example A87A]
4. CN1CCC2(CCN(c3ccc4nc5n(c4c3)C34CCC(CN(CCOc6c(cnn6C)-c6cc(cn(C)c6=O)C(=O)N5)C3)C4)CC2)C1 (single isomer, unassigned) [Example A82A]
5. CN(C)C1CN(c2ccc3nc4n(c3c2)C23CCC(CN(CCOc5c(cnn5C)-c5cc(cn(C)c5=O)C(=O)N4)C2)C3)CC1F (single isomer, unassigned) [Example A84A]

Resp:
6.23
6.37
6.07
6.51
6.65

Quick batch: pIC50 for everything below.
1. CN1CCC12CCN(c1ccc3nc4n(c3c1)C13CCC(CN(CCOc5c(cnn5C)-c5cc(cn(C)c5=O)C(=O)N4)C1)C3)CC2 (single isomer, unassigned) [Example A67B]
2. C[C@@H]1CCCOc2c(cnn2C)-c2cc(cn(C)c2=O)C(=O)Nc2nc3ccc4c(c3n2C1)CCNC4 [Example A102]
3. C[C@@H]1CCCOc2c(cnn2C)-c2cc(cn(C)c2=O)C(=O)Nc2nc3ccc(N4CCC(N(C)C)C(F)(F)C4)cc3n2C1 (stereo partly shown) [Example A51]
4. C[C@@H]1CCCOc2c(cnn2C)-c2cc(cn(C)c2=O)C(=O)Nc2nc3ccc(N4CCC5(CC4)CCN5C)cc3n2C1 [Example A52]

Resp:
[9.19, 7.74, 7.89, 8.89]
